- Test system: Fuc(a1-3)[GalNAc(b1-4)]GlcNAc
- Experiment description: glycan array binding signal (z-score within array); higher = stronger binding
- Condition summary: glycan notation: IUPAC condensed, linker removed
Shown is part of a subset that was picked to be rich in the strongest signals.
Reported endpoint: glycan array binding signal (z-score)
# output: bare number, no unit

Use the examples below as a reference point.
Query: glycan array binding signal (z-score); subject: UDA (Urtica dioica), P11218 (protein) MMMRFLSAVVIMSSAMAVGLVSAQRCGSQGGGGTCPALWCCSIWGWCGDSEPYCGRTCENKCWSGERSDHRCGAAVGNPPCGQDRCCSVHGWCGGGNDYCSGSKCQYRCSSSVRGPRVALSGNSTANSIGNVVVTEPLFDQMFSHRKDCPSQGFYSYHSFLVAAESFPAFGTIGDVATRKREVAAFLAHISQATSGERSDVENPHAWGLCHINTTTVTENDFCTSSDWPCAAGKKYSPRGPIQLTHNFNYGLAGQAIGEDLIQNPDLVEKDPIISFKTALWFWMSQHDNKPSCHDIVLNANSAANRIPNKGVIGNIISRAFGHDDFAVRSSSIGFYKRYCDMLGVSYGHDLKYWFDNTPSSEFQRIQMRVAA
-0.172

Record: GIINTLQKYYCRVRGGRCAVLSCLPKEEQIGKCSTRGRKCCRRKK [Beta-Defensin 3 (Homo sapiens), P81534]
-0.467

***
Query: glycan array binding signal (z-score); subject: MSMEG3662-2a (Mycobacterium smegmatis), A0QYH7_MYCS2 (protein) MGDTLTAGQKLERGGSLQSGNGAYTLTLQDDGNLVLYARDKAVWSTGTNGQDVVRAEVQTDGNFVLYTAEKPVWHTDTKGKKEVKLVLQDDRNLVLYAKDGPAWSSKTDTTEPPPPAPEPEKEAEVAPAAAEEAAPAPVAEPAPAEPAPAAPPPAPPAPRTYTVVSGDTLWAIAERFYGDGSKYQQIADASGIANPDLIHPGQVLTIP
0.413

Ref: the supplement of paper PMC8728848
